Every entry's value here was drawn from PubChem BioAssay AID1347426.

Protocol Text: Novel Modifiers of Survival Motor Neuron (SMN) Protein: Gene Identification via Genome-wide siRNA Screen;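 also: luminescence tracks full-length SMN protein made from the SMN2 reporter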
Setup Conditions: HEK293T SMN2-luciferase reporter, siRNA knockdown, 72 h; actives lie on both sides
In all, about 31,000 sequences went through this assay and about 1,400 (4.5%) were called active. This excerpt belongs to a sample that is enriched for actives.
# median seed-adjusted z-score >= -0.02 gives true (1), anything below gives false (0)

Primary Sequence: AGGAGAUCGUCGACCUGGUTT against TUBA3C
Qualitative Label: false (0)
--
Primary Sequence: GCAAUGAACACCAUCCGAATT against KEAP1
Qualitative Label: true (1)
--
Primary Sequence: GCCUUUACCCUUGAAGAAATT against ME3
Qualitative Label: true (1)
--
Primary Sequence: CUAAGAAUCUGCUUAGUAATT against CLDN5
Qualitative Label: true (1)

[Q] Please tell me: is the sequence CAACCUUUCACUGCAAUGATT against NAT8 at or over -0.02 in terms of median seed-adjusted z-score?
[A] false (0)

[Q] Please tell me: is the sequence GCUCGGAUAUGCUCCAGGATT against TMPRSS5 at or over -0.02 in terms of median seed-adjusted z-score?
[A] true (1)

[Q] Please tell me: is the sequence AUACAGAUCUAAUAGAGUUTT against NAT1 at or over -0.02 in terms of median seed-adjusted z-score?
[A] false (0)
